Reference for the values: patent US10034886B2

- tested-on: GLP-1R (Homo sapiens)
- Construct: host or cells: GLP-1R CRE-bla CHO-K1 cells
- protocol-summary: EC20 GLP-1(9-36) PAM cAMP assay: dose response of compound in the presence of fixed concentration of GLP-1(9-36)
- Format: cell-based
- condition-parameters: dose response of compound in presence of fixed concentration of GLP-1(9-36), GLP-1R CRE-bla CHO-K1 cells, read-out: EC20 GLP-1(9-36) PAM EC50
pEC50: −log10 of the molar value.
measured-quantity: pEC50

Would you please look over these solved cases?
* CC(C)CCCOc1ccc(-c2cnc(-c3ccc(C[C@H](NC(=O)c4ccc(C(C)(C)C)s4)C(=O)N4CC(C(=O)O)C4)cc3)nc2)cc1 [Compound 798] | 5.60 to 6.10
* CCCCCCCOc1ccc(-c2cnc(-c3ccc(C[C@H](NC(=O)c4ccc(C(C)(C)C)cc4)C(=O)N4C[C@@H](O)C[C@H]4C(=O)O)cc3)nc2)cc1 [Compound 587] | > 6.10
* CC(C)(C)c1ccc(C(=O)N[C@@H](Cc2ccc(-c3ncc(-c4nc(CCc5ccccc5)no4)cn3)cc2)C(=O)NCCC(=O)O)cc1 [Compound 746] | 5.30 to 5.60

[Q] So what's the measured pEC50 for this one? CCCCCCOc1ccc(-c2cnc(-c3ccc(C[C@H](NC(=O)c4ccc(C(C)(C)C)cc4)C(=O)N[C@H](C)C(=O)O)cc3)nc2)cc1 [Compound 719]
[A] 5.60 to 6.10

[Q] So what's the measured pEC50 for this one? CCCCCCCOc1ccc(-c2cnc(-c3ccc(C[C@H](NC(=O)c4ccc(C(C)(C)C)cc4)C(=O)NC(C(=O)O)c4cccnc4)cc3)nc2)cc1 (stereo partly drawn) [Compound 468]
[A] > 6.10

[Q] So what's the measured pEC50 for this one? CCCCCCCOc1ccc(-c2cnc(-c3ccc(C[C@H](NC(=O)c4ccc(C(C)(C)C)s4)C(=O)N[C@H](C(=O)O)[C@H](O)C(C)C)cc3)nc2)cc1 [Compound 881]
[A] 5.60 to 6.10

----------
- tested-on: GLP-1R (Homo sapiens, UniProt P43220)
- Construct: host or cells: GLP-1R CRE-bla CHO-K1 cells
- Sequence (P43220 24-463): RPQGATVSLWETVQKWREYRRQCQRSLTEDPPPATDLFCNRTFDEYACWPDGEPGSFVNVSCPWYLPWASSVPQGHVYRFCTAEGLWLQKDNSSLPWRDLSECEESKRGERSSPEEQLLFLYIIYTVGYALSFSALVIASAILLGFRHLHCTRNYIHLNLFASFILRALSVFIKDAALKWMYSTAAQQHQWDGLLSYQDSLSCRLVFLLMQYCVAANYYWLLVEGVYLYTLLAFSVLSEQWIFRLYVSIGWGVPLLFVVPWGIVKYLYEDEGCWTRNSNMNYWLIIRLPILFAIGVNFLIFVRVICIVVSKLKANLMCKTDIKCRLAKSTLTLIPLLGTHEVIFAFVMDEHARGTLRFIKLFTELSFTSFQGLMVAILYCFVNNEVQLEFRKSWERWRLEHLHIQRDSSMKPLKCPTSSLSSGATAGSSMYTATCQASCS
- Sequence (P01275 100-127 partner limits assumed): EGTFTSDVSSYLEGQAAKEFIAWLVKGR
- protocol-summary: EC20 GLP-1(9-36) PAM cAMP assay: dose response of compound in the presence of fixed concentration of GLP-1(9-36)
- Format: cell-based
- condition-parameters: dose response of compound in presence of fixed concentration of GLP-1(9-36), GLP-1R CRE-bla CHO-K1 cells, read-out: EC20 GLP-1(9-36) PAM EC50
pEC50: −log10 of the molar value.
measured-quantity: pEC50

Would you please look over these solved cases?
- CCCCCCCOc1ccc(-c2cnc(-c3ccc(C[C@H](NC(=O)c4ccc(C(C)(C)C)cc4)C(=O)NC(C(=O)O)C4CCOCC4)cc3)nc2)cc1 (stereo partly drawn): > 6.10
- CCCCCCCOc1ccc(-c2cnc(-c3ccc(C[C@H](NC(=O)c4ccc(C(C)(C)C)s4)C(=O)N4CC[C@H](C(=O)O)C4)cc3)nc2)nc1: > 6.10

From here, focus on the item given below.
[Q] So what's the measured pEC50 for this one? CCCCCCCOc1ccc(-c2cnc(-c3ccc(C[C@H](NC(=O)c4ccc(C(C)(C)C)s4)C(=O)N[C@@H](CC)C(=O)O)cc3)nc2)cc1
[A] > 6.10
